Species: Rattus norvegicus
Experiment: DrugMatrix - Regimen: Daily Repeat
Format: toxicity, organism-based, Sprague-Dawley
Set-up: regimen Daily Repeat, gender Male, age 6-8 weeks
Conditions: in vivo, po, 0 mg/kg, 72 h, tissue Blood, route oral GAVAGE, dose level Control, time 3 day, vehicle .5 % CMC
VALUE_TYPE: EOSINOPHIL
Write your answer as a measured quantity: the number, then the unit.

Use these answered entries as a reference point.
• CC(=O)Oc1ccc(C(c2ccc(OC(C)=O)cc2)c2ccccn2)cc1 = 0.33%
• NCCCC(O)(P(=O)(O)O)P(=O)(O)O = 0%
• O=C1C(CC[S+]([O-])c2ccccc2)C(=O)N(c2ccccc2)N1c1ccccc1 (stereo not drawn) = 1%

For record "CN(C)[C@@H]1C(O)=C(C(N)=O)C(=O)[C@@]2(O)C(O)=C3C(=O)c4c(O)ccc(Cl)c4[C@@](C)(O)[C@H]3C[C@@H]12" the listed EOSINOPHIL is 0.17%

For record Cn1c(=O)c2c(ncn2CC(O)CO)n(C)c1=O (stereo not drawn) the listed EOSINOPHIL is 0.17%

For record "C[C@H]1O[C@@H](n2cc(F)c(=O)[nH]c2=O)[C@H](O)[C@@H]1O" the listed EOSINOPHIL is 0%

For record "COc1cc2nc(N3CCN(C(=O)c4ccco4)CC3)nc(N)c2cc1OC" the listed EOSINOPHIL is 1%

For record "CN/C(=N/CCSCc1nc[nH]c1C)NC#N" the listed EOSINOPHIL is 0%

* * *

Species on record: Rattus norvegicus
Assay: DrugMatrix - Regimen: Daily Repeat
Format: toxicity, organism-based, Sprague-Dawley
Design: regimen Daily Repeat, gender Male, age 6-8 weeks
Details: in vivo, po, 0 mg/kg, 120 h, tissue Blood, route oral GAVAGE, dose level Control, time 5 day, […]
VALUE_TYPE: EOSINOPHIL (%)
Response body: numeric value in %, unit text excluded.

- CO[C@H]1/C=C/O[C@@]2(C)Oc3c(C)c(O)c4c(O)c(c(/C=N/N5CCN(C6CCCC6)CC5)c(O)c4c3C2=O)NC(=O)/C(C)=C\C=C\[C@H](C)[C@H](O)[C@@H](C)[C@@H](O)[C@@H](C)[C@H](OC(C)=O)[C@@H]1C: 0.5
- CC(C)(C)NC(=O)[C@H]1CC[C@H]2[C@@H]3CC[C@H]4NC(=O)C=C[C@]4(C)[C@H]3CC[C@]12C [FINASTERIDE]: 0
- COc1cc([C@@H]2c3cc4c(cc3[C@@H](O[C@@H]3O[C@@H]5CO[C@@H](C)O[C@H]5[C@H](O)[C@H]3O)[C@H]3COC(=O)[C@H]23)OCO4)cc(OC)c1O [ETOPOSIDE]: 0
- Clc1ccc(COC(Cn2ccnc2)c2ccc(Cl)cc2Cl)cc1 (stereo not given): 0

Proceeding to the next compound to report its EOSINOPHIL.
For record COc1cc(N)c(Cl)cc1C(=O)NC1CCN(CCCOc2ccc(F)cc2)CC1OC (stereo not given) [CISAPRIDE] the listed EOSINOPHIL is 0.17

* * *

Parameter MEAN CORPUSCULAR VOLUME: see the listing below.
Organism: Rattus norvegicus
Assay: DrugMatrix - Regimen: Daily Repeat
Format: toxicity, organism-based, Sprague-Dawley
Design: regimen Daily Repeat, gender Male, age 6-8 weeks
Conditions: in vivo, po, 0 mg/kg, 72 h, tissue Blood, route oral GAVAGE, dose level Control, time 3 day, vehicle .5 % CMC
Response body: numeric value in fL, unit text excluded.

Use these answered entries as a reference point.
• NC1CCN(c2nc3c(cc2F)c(=O)c(C(=O)O)cn3-c2ccc(F)cc2F)C1 (stereo not drawn) [TOSUFLOXACIN] = 58.52
• O=C1CN=C(c2ccccc2Cl)c2cc([N+](=O)[O-])ccc2N1 [CLONAZEPAM] = 64.42
• CNCCC(Oc1ccc(C(F)(F)F)cc1)c1ccccc1 (stereo not drawn) [FLUOXETINE] = 59.45
• CCN(CC)CCOc1ccc(/C(=C(/Cl)c2ccccc2)c2ccccc2)cc1 [ENCLOMIPHENE] = 63.47
• CN(C/C=C/C#CC(C)(C)C)Cc1cccc2ccccc12 [TERBINAFINE] = 58.52
• COC1=C(OC)C(=O)C(CCCCCCCCCCO)=C(C)C1=O [IDEBENONE] = 64.42
• CN(C)[C@@H]1C(O)=C(C(N)=O)C(=O)[C@@]2(O)C(O)=C3C(=O)c4c(O)ccc(Cl)c4[C@@](C)(O)[C@H]3C[C@@H]12 [CHLORTETRACYCLINE] = 63.05

Proceeding to the next compound to report its MEAN CORPUSCULAR VOLUME.
For record CC(=O)Oc1ccc(C(c2ccc(OC(C)=O)cc2)c2ccccn2)cc1 [BISACODYL] the listed MEAN CORPUSCULAR VOLUME is 64.32
